Below, each entry is listed alongside its reported normalized growth.
Test: chemical genetic growth profiling, strain panel (AID 1159580);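 also: tested at 20 µM; growth read once vehicle control cultures reached saturation at 30 °C; 1 = growth at the plate median or of vehicle wells; lower values mean less growth of the strain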
Details: S. cerevisiae deletion strains, growth OD, locus YNL153C, strain GIM3, active compounds read low
Among all 5,500 compounds or so, about 2,000 (36%) were called active. Inconclusive results (about 18%) are left out. Some of the results follow.
Write no unit; give the number alone.

Worked cases, normalized growth given:
CC(C)C1CCC(C(=O)N[C@@H](Cc2ccccc2)C(=O)O)CC1 (stereo partly drawn) | 1
FC(F)(F)c1cc(-c2ccc(Cl)cc2)nc2cc(C3CC3)nn12 | 1.02

Please turn your attention to the following entry.
Record O=C(c1ccccc1)c1ccc2n1CCC2C(=O)O (stereo not drawn) , field normalized growth: 0.998

* * *

Experiment: chemical genetic growth profiling, strain panel (AID 1159580)
Conditions: S. cerevisiae deletion strains, growth OD, locus YJL095W, strain BCK1
The campaign covered roughly 5,500 compounds. About 2,000 (36%) were called active. Another 18% or so got no clear call; they are omitted. Rule as the data show it: active = normalized growth mostly below about 0.91 (no sharp cut-off); inconclusive = no clear call, values can overlap the other calls; inactive = mostly above about 0.92. Some of the results follow.
Respond using exactly one of the listed classes: active, inactive

Look over these answered cases.
COc1ccc(Oc2ccc([N+](=O)[O-])cc2C(=O)O/N=C(/N)c2ccc(C(F)(F)F)cc2)cc1 | inactive
COC(=O)c1cc([N+](=O)[O-])ccc1S(=O)(=O)Cc1ccc(Cl)cc1 | inactive
CCOC(=O)c1ccc(N=Cc2cc(Cl)cc(Cl)c2O)cc1 | active
CC1CC(OC(=O)c2ccccc2O)CC(C)(C)C1 (centres undefined) | inactive
COC(=O)c1cc(OC)c(=O)c2c(OC)c(OC)ccc2c1 | inactive

[Q] Which outcome did this test record for the compound O=[N+]([O-])c1cc(C(F)(F)F)ccc1Sc1n[nH]c(-c2cc(Cl)cc(Cl)c2)n1 ?
[A] active

[Q] Any idea what this test logged for CCOC(=O)C(O)(c1ccc(NC(=O)c2ccc(Cl)c(Cl)c2)cc1)C(F)(F)F (centres undefined) ?
[A] inactive

[Q] Per the assay record, what outcome was assigned to CCCCCCCCCCCCCCCC(=O)OC[C@H](NC(=O)C(Cl)Cl)[C@H](O)c1ccc([N+](=O)[O-])cc1 ?
[A] inactive

[Q] Lab log entry: Cc1cc2nc3c(=O)[nH]c(=O)nc-3n(C[C@@H](O)[C@@H](O)[C@@H](O)COP(=O)(O)O)c2cc1C — outcome as called in the assay?
[A] inactive

[Q] Please let me know the test result on file for Cc1cc(Oc2c([N+](=O)[O-])cc(C(F)(F)F)cc2[N+](=O)[O-])c2c(Cl)ccc(C)c2n1 .
[A] active

[Q] I would be grateful if you could indicate the recorded call for O=C1c2ccccc2C(=O)C1(O)C1(O)C(=O)c2ccccc2C1=O .
[A] inactive

[Q] Look up the recorded call for C[C@]12CC[C@@H](O)C[C@H]1CCc1ccccc12 in this test.
[A] inactive

[Q] Tell me the recorded outcome of this test for CC(=O)Nc1c(I)cc(I)c(C(=O)O)c1I .
[A] inactive

[Q] Hey, what did the test say about COc1ccc(-c2c(OC)c3c(OC)c4c(cc3oc2=O)OC(C)(C)C=C4)cc1 ?
[A] inactive

* * *

Overview of recorded normalized growth for various compounds
Experiment: chemical genetic growth profiling, strain panel (AID 1159580)
Settings: S. cerevisiae deletion strains, growth OD, locus YER110C, active compounds read low
Among all 5,500 compounds or so, about 2,000 (36%) were called active. About 18% were inconclusive and are not listed. The list shows a part of the results.
# answer = number (no unit)

O=c1c(O)c(-c2ccccc2)oc2ccc3occc3c12 | 0.767

response.value for C=C(C)C1Cc2c(ccc(C(=O)O)c2O)O1 (stereo unspecified) (field: normalized growth) = 0.944

Reported normalized growth for Cn1cnc2c1c(=O)[nH]c(=O)n2C was 1.01

The compound CC(C)N=C(N)N=C(N)Nc1ccc(Cl)cc1 showed normalized growth equal to 1.02

The compound listed as CN1CCC[C@H]1c1cccnc1 has a reported normalized growth of 0.985

Sure, the documented normalized growth for CC(C)N1C(=O)c2ccccc2NS1(=O)=O is 1

// recorded normalized growth for Cc1c(NC(C)C)c(=O)n(-c2ccccc2)n1C : 0.984

normalized growth in this record for CN1CCCCC1c1ccc(-c2cccnc2)nc1 (stereo unspecified) : 1

Note to self: normalized growth recorded for CNC(=O)Oc1ccccc1OC(C)C was 0.994

Data point: COC1=CC23CCCN2CCc2cc4c(cc2C3C1O)OCO4 (stereo unspecified) ; normalized growth = 1.01

For C[C@H]1C(=O)CCC2[C@]3(C)CC[C@@]4(C)C5CC(C)(C)CC[C@]5(C)CC[C@]4(C)C3CC[C@@]21C (stereo partly specified) the compound record lists normalized growth as 1.01

* * *

Listing of recorded normalized growth by entry.
Assay: chemical genetic growth profiling, strain panel (AID 1159580);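 also: tested at 20 µM; growth read once vehicle control cultures reached saturation at 30 °C; 1 = growth at the plate median or of vehicle wells; lower values mean less growth of the strain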
Details: S. cerevisiae deletion strains, growth OD, locus YLR027C, strain aat2, active compounds read low
In all, about 5,500 compounds went through this assay and about 2,000 (36%) were called active. Another 18% or so got no clear call; they are omitted. The list shows a part of the results.
Output spec: single numeric token, no unit.

Look over these answered cases.
COc1cc(O)c2c(c1)C(=O)c1cc(C)cc(O)c1C2=O | 0.986
CC(=O)OC1CCC2(O)CC1(C)CCC1C2CC1(C)C (stereo not drawn) | 1.05
O=c1c(O)c(-c2ccccc2)oc2cccc(O)c12 | 0.842
Oc1cc2c(cc1O)C(c1ccccc1)CNCC2 (stereo not drawn) | 0.977

Entry COC(=O)C[C@H]1C(C)(C)[C@@H](OC(C)=O)[C@@H]2CC3=C4CC(=O)O[C@@H](c5ccoc5)[C@]4(C)CCC3[C@@]1(C)C2=O (stereo partly drawn) ; normalized growth = 0.998

The compound identified as O=C(N[C@@H](CO)[C@H](O)c1ccc([N+](=O)[O-])cc1)C(Cl)Cl registered its normalized growth at 1.02

Consider O=C1NS(=O)(=O)c2ccccc21 . Its measured normalized growth is 1.02

// recorded normalized growth for CCCCCC/C=C\CCCCCCCc1cccc(O)c1C(=O)O : 0.986

* * *

Experiment: chemical genetic growth profiling, strain panel (AID 1159580);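 also: tested at 20 µM; growth read once vehicle control cultures reached saturation at 30 °C; 1 = growth at the plate median or of vehicle wells; lower values mean less growth of the strain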
Details: S. cerevisiae deletion strains, growth OD, locus YKL068W, active compounds read low
In all, about 5,500 compounds went through this assay and about 2,000 (36%) were called active. About 18% were inconclusive and are not listed. Some of the results follow.
// values below are reported normalized growth
Write the number on its own, no unit after it.

Cc1c(NC(C)C)c(=O)n(-c2ccccc2)n1C | 0.989

// sample CC(C)[C@@H]1CC[C@@H](C)C[C@H]1OC(=O)c1ccccc1 , its normalized growth was 1.01

The compound Cc1cc(O)c2c(c1)C(=O)c1cccc(O)c1C2=O showed normalized growth equal to 1.02

* * *

Assay: chemical genetic growth profiling, strain panel (AID 1159580);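 also: tested at 20 µM; growth read once vehicle control cultures reached saturation at 30 °C; 1 = growth at the plate median or of vehicle wells; lower values mean less growth of the strain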
Conditions: S. cerevisiae deletion strains, growth OD, locus YNR049C, strain mso1, active compounds read low
Hit rate of the full screen: of about 5,500 compounds, about 2,000 (36%) were called active. Not shown: some 18% with an inconclusive outcome. Some of the results follow.
Quick reference for normalized growth among some compounds
Write the number on its own, no unit after it.

Consider the reported normalized growth for these compounds:
CNC(=O)N(C)c1nnc(C(C)(C)C)s1 | 0.974
C=C(C)C1Cc2c(ccc3c(=O)c4c(oc23)COc2cc(OC)c(OC)cc2-4)O1 (stereo not given) | 1
CC(=O)NC1C(O)OC(COS(=O)(=O)O)C(OC2OC(C(=O)O)C(OC3OC(CO)C(OC4OC(C(=O)O)C(O)C(O)C4OS(=O)(=O)O)C(OS(=O)(=O)O)C3NS(=O)(=O)O)C(O)C2OS(=O)(=O)O)C1O (stereo not given) | 0.987
CC(C)[C@@H]1CC[C@@H](C)CC1=O | 1
CNC(=O)Oc1ccccc1OC(C)C | 0.989

Per the record, CC(=O)OC1CCC23CC1(C)CCC2C(C)(C)CC3OC(C)=O (stereo not given) has normalized growth of 0.984

Please fill in: normalized growth reported for O=C1NS(=O)(=O)c2ccccc21 = 1.02

Reported normalized growth of CC(C)=CCC/C(C)=C/CO : 0.984

Data point: NS(=O)(=O)c1cc2c(cc1Cl)NCNS2(=O)=O ; normalized growth = 1

# normalized growth (compound: CC(=O)Nc1c(I)cc(I)c(C(=O)O)c1I ) is 0.993

Noted for CC12CCC(O)CC1CCc1ccccc12 (stereo not given) : its normalized growth reads 0.971

Query NC(Cc1ccc(Cl)cc1)C(=O)O (stereo not given) yields normalized growth of 1

Summary for this compound, CCCC(=O)Nc1ccc(OCC(O)CNC(C)C)c(C(C)=O)c1 (stereo not given) : normalized growth is 1.01

// CO/N=C(/C(=O)NC1C(=O)N2C(C(=O)OCOC(=O)C(C)(C)C)=C(/C=C\c3scnc3C)CSC12)c1csc(N)n1 (stereo not given) : normalized growth value = 0.991

Reference source: PubChem BioAssay AID1159580
